- Tested on: 379773-124-R-J2-PDC complex spheroids, viability % test/control
- method-description: Anticancer human tumor 379773-124-R-J2-PDC patient-derived endometrial carcinoma cell line growth inhibition [CLK]
- condition-info: second compound 0.0316 µM; first compound 0.3 µM; active compounds read low
viability, T/C vs 10%: less than gives label 1; not less than gives label 0.

molecule	label-value
CC(C)CC(NC(=O)C(Cc1ccccc1)NC(=O)c1cnccn1)B(O)O (stereo unspecified) + CN1CCN(c2cc(C(=O)Nc3cc4cc(-c5cnn(C)c5)ccc4cn3)ccn2)CC1	label 1
C=CC(=O)Nc1cc(Nc2nccc(-c3cn(C)c4ccccc34)n2)c(OC)cc1N(C)CCN(C)C + CNC(=O)c1ccc(Nc2nc(OC3CCCC3)c3c(-c4ccc5nc(C)oc5c4)c[nH]c3n2)c(OC)c1	label 0
NC(=O)C(=Cn1cnc(-c2cc(C(F)(F)F)cc(C(F)(F)F)c2)n1)c1cncnc1 + CN1CCN(c2cc(C(=O)Nc3cc4cc(-c5cnn(C)c5)ccc4cn3)ccn2)CC1	label 0
CC(C)CC(NC(=O)C(Cc1ccccc1)NC(=O)c1cnccn1)B(O)O (stereo unspecified) + CNC(=O)c1ccc(Nc2nc(OC3CCCC3)c3c(-c4ccc5nc(C)oc5c4)c[nH]c3n2)c(OC)c1	label 1
NC(=O)C(=Cn1cnc(-c2cc(C(F)(F)F)cc(C(F)(F)F)c2)n1)c1cncnc1 + CNC(=O)c1ccc(Nc2nc(OC3CCCC3)c3c(-c4ccc5nc(C)oc5c4)c[nH]c3n2)c(OC)c1	label 0
C=CC(=O)Nc1cc(Nc2nccc(-c3cn(C)c4ccccc34)n2)c(OC)cc1N(C)CCN(C)C + CN1CCN(c2cc(C(=O)Nc3cc4cc(-c5cnn(C)c5)ccc4cn3)ccn2)CC1	label 0

---

- Test system: 379773-124-R-J2-PDC complex spheroids, viability % test/control
- method-description: Anticancer human tumor 379773-124-R-J2-PDC cell line growth inhibition [CLK];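 further: compound exposure lasted seven days before the viability readout; 100% = DMSO vehicle control wells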
- condition-info: second compound 0.316 µM; first compound 0.316 µM; active compounds read low
Label Y when viability, T/C < 30%; otherwise N.

molecule	label-value
O=C(c1cc(Cc2n[nH]c(=O)c3ccccc23)ccc1F)N1CCN(C(=O)C2CC2)CC1 + CNC(=O)c1ccc(Nc2nc(OC3CCCC3)c3c(-c4ccc5nc(C)oc5c4)c[nH]c3n2)c(OC)c1	N
CC(=O)O[C@H]1C(=O)[C@@]2(C)[C@H]([C@H](OC(=O)c3ccccc3)[C@]3(O)C[C@H](OC(=O)[C@H](O)[C@@H](NC(=O)c4ccccc4)c4ccccc4)C(C)=C1C3(C)C)[C@]1(OC(C)=O)CO[C@@H]1C[C@@H]2O + CN1CCN(c2cc(C(=O)Nc3cc4cc(-c5cnn(C)c5)ccc4cn3)ccn2)CC1	Y
CCN1CCN(Cc2ccc(Nc3ncc(F)c(-c4cc(F)c5nc(C)n(C(C)C)c5c4)n3)nc2)CC1 + CNC(=O)c1ccc(Nc2nc(OC3CCCC3)c3c(-c4ccc5nc(C)oc5c4)c[nH]c3n2)c(OC)c1	N
Nc1ccccc1NC(=O)c1ccc(CNC(=O)OCc2cccnc2)cc1 + CNC(=O)c1ccc(Nc2nc(OC3CCCC3)c3c(-c4ccc5nc(C)oc5c4)c[nH]c3n2)c(OC)c1	Y

---

- Test system: 379773-124-R-J2-PDC complex spheroids, viability % test/control
- method-description: Anticancer human tumor 379773-124-R-J2-PDC cell line growth inhibition [CLK];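 further: compound exposure lasted seven days before the viability readout; 100% = DMSO vehicle control wells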
- condition-info: second compound 0.316 µM; first compound 0.1 µM; active compounds read low
property: viability, T/C (%)

compound	property	data-value
O=C(c1cc(Cc2n[nH]c(=O)c3ccccc23)ccc1F)N1CCN(C(=O)C2CC2)CC1 + CNC(=O)c1ccc(Nc2nc(OC3CCCC3)c3c(-c4ccc5nc(C)oc5c4)c[nH]c3n2)c(OC)c1	viability, T/C	42.3
CCCS(=O)(=O)Nc1ccc(F)c(C(=O)c2c[nH]c3ncc(-c4ccc(Cl)cc4)cc23)c1F + CN1CCN(c2cc(C(=O)Nc3cc4cc(-c5cnn(C)c5)ccc4cn3)ccn2)CC1	viability, T/C	27.3
COc1c(OCCCN2CCOCC2)ccc2c3n(c(=NC(=O)c4cnc(N)nc4)nc12)CCN3 + CNC(=O)c1ccc(Nc2nc(OC3CCCC3)c3c(-c4ccc5nc(C)oc5c4)c[nH]c3n2)c(OC)c1	viability, T/C	10.1
